Target: acetylcholine receptor
Assay: SPR, peptide at 10 uM
readoutType: Binding affinity (RU)

> print(dat)
                 binder       readouttype  reported
1  RTKMRR [6mer-2-1101]  Binding affinity        38
2  KCSIKK [6mer-2-1166]  Binding affinity        26
3  KCHFKK [6mer-2-1163]  Binding affinity        37
4  RANWKR [6mer-2-1135]  Binding affinity        29
5  RAHERK [6mer-2-1107]  Binding affinity        29
6  RPWERR [6mer-2-1132]  Binding affinity        32
7  KFMKKK [6mer-2-1147]  Binding affinity        35
8  KYENRK [6mer-2-1134]  Binding affinity        30
